# Tested on: IGROV1 ovarian
# RUN DESCRIPTION: NCI tumour cell line growth inhibition, 48 h
REPORTED ENDPOINT: GI50

CC1(C)Cc2c(Br)c(Br)c(Br)c(OCC(O)CN3CCOCC3)c2O1 (stereo not given) | 14100 nM
O=[N+]([O-])c1cccc(-c2cc(-c3cc(Br)ccc3O)[nH]n2)c1 | 2270 nM
CCC[CH2][Sn]1([CH2]CCC)[O]C(=O)CN=Cc2ccccc2[O]1 | 2270 nM
COc1cc(-c2n/c(=C\c3c(O)[nH]c4ccccc34)cc3c2=Nc2ccccc2-3)cc(OC)c1OC | 2000 nM

The record that follows has no GI50 shown yet.
[ask] Find the recorded GI50 belonging to COc1ccc(/C=C\c2cc(OC)c(OC)c(OC)c2)cc1OCC(=O)Nc1nc2ccc(OC(F)(F)F)cc2s1 and report it.
[reply] 5640 nM

====

# System: HOP-62 NSCLC
# RUN DESCRIPTION: NCI tumour cell line growth inhibition, 48 h
REPORTED ENDPOINT: TGI

CCC(=O)c1ccc2c(c1)N(CCCN1CCN(CCO)CC1)c1ccccc1S2 | 30.3 µM
CN1CC2CC(C1)c1cccc(=O)n1C2 (stereo unspecified) | > 100 µM
COc1cc2c(c(OC)c1OC)-c1ccc(SC)c(=O)cc1C(CC(=O)Oc1cccc(C#N)c1)C2 (stereo unspecified) | > 100 µM
NC(=O)NCCCC(NC(=O)OCCCCCn1ccc(=O)[nH]c1=O)C(=O)O (stereo unspecified) | > 100 µM
CS(=O)(=O)O.[Ag] | 65.9 µM

[ask] Recall the recorded TGI for COc1cc2c(cc1Cl)n([O-])c(C#N)c(N1CCN(c3ccc([N+](=O)[O-])cc3)CC1)[n+]2=O with HOP-62 NSCLC and state it.
[reply] > 62.8 µM

[ask] Requested read-out TGI, target or system HOP-62 NSCLC, entry Cc1cn2c(=O)n(c1=O)Cc1ccccc1C2
[reply] > 100 µM

[ask] Form: Entry = Nc1ccc(-n2c(=O)oc3ccc(Cl)cc3c2=O)c(Cl)c1 | System = HOP-62 NSCLC | TGI = ____
[reply] 1.59 µM

[ask] Find TGI (HOP-62 NSCLC) for the entry Nc1nc2cc(CNc3ccc(C(=O)NC(CCC(=O)O)C(=O)O)cc3)ccc2nc1-c1ccccc1 (stereo unspecified)
[reply] > 10 µM

====

Recorded TGI by entry
# Test system: SR leukemia
# RUN DESCRIPTION: NCI tumour cell line growth inhibition, 48 h
Lab book: enter the figure in µM, no units written.

[ask] What does the record list as TGI for O=C1C=CC(=O)c2c1ncc1c2nc2sccn21 ?
[reply] 35.3

[ask] Given the entry CCOC(=O)C1=C(c2ccccc2)N(c2ccc(OC)cc2)[C@]2(C#N)C(O)=C(Cl)C(Cl)=C(O)[C@]12C#N , report its measured TGI.
[reply] 28.8

[ask] Any idea what TGI was measured for NCCCCNC1(c2cc3ccccc3s2)CCCCC1 ?
[reply] 3.58

====

Each entry below lists one item and its recorded TGI value.
# Test system: HOP-92 NSCLC
# RUN DESCRIPTION: NCI tumour cell line growth inhibition, 48 h

Cc1ccc2nc(Cl)c(/C=N/N3C(=O)/C(=C/c4ccc(N(C)C)cc4)N=C3c3ccccc3)cc2c1 | > 100 µM
COc1cc2c(c(OC)c1OC)-c1ccc(SC)c(=O)cc1C(CC(=O)Oc1cccc(C#N)c1)C2 (stereo not drawn) | > 100 µM

[ask] Can you look up the measured TGI of COc1cc(C2S/C(=C/c3ccccc3)C(=O)N2c2cccc([N+](=O)[O-])c2)cc(OC)c1OC (stereo not drawn) for me?
[reply] > 100 µM

====

# Tested on: MOLT-4 leukemia
# RUN DESCRIPTION: NCI tumour cell line growth inhibition, 48 h; in the data active means GI50 below about 0.43 µM; inactive means the rest
One label from this list, please: active, inactive

O=C1CC/C(=C\COc2ccc3ccc(=O)oc3c2)O1 | inactive
C=C(C)[C@@H]1CC[C@]2(C(=O)NCCNCCNCCN)CC[C@]3(C)[C@H](CC[C@@H]4[C@@]5(C)CCC(=O)C(C)(C)[C@@H]5CC[C@]43C)[C@@H]12 | inactive
OCc1ccc(Oc2c3ccccc3nc3occc23)cc1 | inactive
CCCCCCCCCCCCCCCCn1cc[n+](Cc2ccccc2)c1C | inactive
Cc1ccc(F)cc1NC(=O)c1cc(Cl)ccc1Nc1ccccc1 | inactive

[ask] Dear colleague, could you share the recorded outcome for Oc1ccc(CN(Cc2ccc(C(F)(F)F)cc2)Cc2ccc(O)c3ncccc23)c2cccnc12 when you have a moment?
[reply] active

[ask] How was COc1cc2c(cc1OC)-c1c(c3ccc([N+](=O)[O-])cc3c(=O)n1CCCN)C2=O classified in this test?
[reply] active

[ask] Would you mind telling me which call this test gave COc1cc(-c2n/c(=C\c3c(O)[nH]c4ccccc34)cc3c2=Nc2ccccc2-3)cc(OC)c1OC ?
[reply] inactive

====

# maps each entry to its TGI
# System: MDA-MB-231 breast
# RUN DESCRIPTION: NCI tumour cell line growth inhibition, 48 h

NC(=O)NCCSC1CCCCC1O (stereo not drawn) | > 100 µM
Oc1ccc(CN(Cc2ccc(C(F)(F)F)cc2)Cc2ccc(O)c3ncccc23)c2cccnc12 | > 100 µM

Pending compound:
[ask] Can you look up the measured TGI of O=C(O)C1SCCS1 for me?
[reply] > 100 µM

====

# Tested on: SK-MEL-28 melanoma
# RUN DESCRIPTION: NCI tumour cell line growth inhibition, 48 h
REPORTED ENDPOINT: TGI

COc1cc(-c2n/c(=C\c3c(O)[nH]c4ccccc34)cc3c2=Nc2ccccc2-3)cc(OC)c1OC | > 100 µM
Oc1ccc(CN(Cc2ccc(C(F)(F)F)cc2)Cc2ccc(O)c3ncccc23)c2cccnc12 | > 100 µM
CCOC(=O)C(=O)Nc1ccc(Cl)c(C(F)(F)F)c1 | > 100 µM
O=C(C#Cc1cn(C2CC(O)C(CO)O2)c(=O)[nH]c1=O)c1ccccc1 (stereo not given) | > 100 µM
C=CCN(CC=C)CC(C(C)=O)C(c1ccccc1)c1c(O)c2ccccc2oc1=O (stereo not given) | > 100 µM

[ask] Which TGI reading was recorded for the compound CCOc1cc(C2SCC(=O)N2c2nc3cc4sc(N5C(=O)CSC5c5ccc(O)c(OCC)c5)nc4cc3s2)ccc1O (stereo not given) ?
[reply] > 100 µM

[ask] # input compound: C#CCOC(=O)C(N)CCCN=C(N)N (stereo not given) ; wanted: its TGI
[reply] > 100 µM

[ask] For the compound CN1CCC(n2[nH]c(-c3ccccc3)c(Cc3ccccc3)c2=O)CC1 , what TGI is on record?
[reply] > 100 µM

[ask] # lookup: TGI of N#Cc1c(N2CCN(c3ccc([N+](=O)[O-])cc3)CC2)[n+](=O)c2ccc(Cl)cc2n1[O-]
[reply] > 39.2 µM

[ask] Request the reported TGI associated with COc1cc(/C=C2\C(=O)Nc3ccccc32)cc(OC)c1OC
[reply] > 100 µM

====

# System: EKVX NSCLC
# RUN DESCRIPTION: NCI tumour cell line growth inhibition, 48 h
Recorded TGI, one value per entry.

These solved cases illustrate the format of a correct answer.
CNC(=O)OCc1[nH]ccc2c(C)c3nc4ccc(OC)cc4c3cc12 | > 100 µM
CC(=N\N=C\c1ccccn1)/C(C)=N/N=C(C)/C(C)=N/N=C(C)/C(C)=N/N=C/c1ccccn1 | > 100 µM

Now consider a different compound.
[ask] Kindly state the measured TGI obtained for OCC(O)C(O)C(O)C(/C=N\Nc1ncnc2ccc(Br)cc12)=N/Nc1ncnc2ccc(Br)cc12 (stereo not drawn) with EKVX NSCLC.
[reply] > 100 µM

====

Entries annotated with measured TGI
# Test system: U251 CNS
# RUN DESCRIPTION: NCI tumour cell line growth inhibition, 48 h

[ask] API: value(readout=TGI, system=U251 CNS) for record COc1ccc(C2=C(c3cc(OC)c(OC)c(OC)c3)C(=O)OC2)cc1OC
[reply] > 100 µM

====

# System: TK-10 renal
# RUN DESCRIPTION: NCI tumour cell line growth inhibition, 48 h
REPORTED ENDPOINT: TGI (µM)
Give the value in µM but do not write µM after it.

O=[N+]([O-])/C=C/c1ccc([N+](=O)[O-])cc1 | 6.19

Proceed to the following item.
[ask] Recorded TGI of C=C(C)[C@@H]1CC[C@]2(C(=O)NCCNCCNCCN)CC[C@]3(C)[C@H](CC[C@@H]4[C@@]5(C)CCC(=O)C(C)(C)[C@@H]5CC[C@]43C)[C@@H]12 , please.
[reply] 19.7

====

# Tested on: UACC-62 melanoma
# RUN DESCRIPTION: NCI tumour cell line growth inhibition, 48 h
Recorded TGI by entry

O=C(OCc1ccccc1)N1c2cc([N+](=O)[O-])ccc2C(=O)N2CCC[C@H]2C1O (stereo partly drawn) | > 100 µM
NC(=O)NCCSC1CCCCC1O (stereo not drawn) | > 100 µM

[ask] Consider the compound O=C1C[C@H](c2ccccc2)C2(C(=O)c3ccccc3C2=O)[C@H](c2ccccc2)C1 and give its measured TGI.
[reply] > 100 µM

These entries and their values trace back to PubChem BioAssay (NCI).
